system: MYB mRNA; assay: Splicing RT-qPCR assay, MYB canonical (CJ) and alternative (AJ) junction mRNA; assay type: cell-based, human; conditions: Homo sapiens, 24 h, A673 or K562 cells, 24 hours compound treatment, RT-qPCR; read-out: MYB AJ (AC50, increase in alternative junction mRNA)
Catalogue of AC50 readings, one per entry.

Compound	AC50
CCn1cc2c(N3CCN(C)CC3)ccc(C(=O)Nc3cc(F)c4nc(CO)oc4c3)c2n1	> 10000 nM
Cc1cn2cc(NC(=O)c3ccc(N4CCNCC4)c4cn(Cc5cn[nH]c5)nc34)cc(F)c2n1	1000 to 10000 nM

Identify AC50 associated with the compound Cc1cn2cc(NC(=O)c3c(F)cc(N4CCC(N(C)C)C4)c4cn(C)nc34)cc(F)c2n1 (stereo in doubt) [Compound 463] < 100 nM

Identify AC50 associated with the compound Cc1cn2cc(NC(=O)c3ccc(N4CCC(N)CC4)c4cn(C)nc34)cc(F)c2n1 < 100 nM

Identify AC50 associated with the compound CCn1cc2c(N3CC[C@@H](N(C)C)C3)ccc(C(=O)Nc3cc(F)c4nc(C)cn4c3)c2n1 100 to 1000 nM

Identify AC50 associated with the compound Cc1cn2cc(NC(=O)c3cc(C)c(N4CCNCC4)c4cn(C)nc34)cc(F)c2n1 100 to 1000 nM

Identify AC50 associated with the compound Cc1cn2cc(NC(=O)c3ccc(N4CC[C@H](N)C4)c4cn(C)nc34)cc(F)c2n1 < 100 nM

---

test system: HTT mRNA; experiment: Splicing RT-qPCR assay, HTT canonical (CJ) and alternative (AJ) junction mRNA; format: cell-based, human; settings: Homo sapiens, A673 or K562 cells, 24 hours compound treatment, read-out: HTT AJ (AC50, increase in alternative junction mRNA)
Quantity name: AC50

Compound	AC50
CC1=CC2=NC(C)=NC2C=C1NC(=O)c1ccc(N2CCNCC2)c2cn(C)nc12 (centres unmarked)	1000 to 10000 nM
CCNC1CCN(c2ccc(C(=O)Nc3cc(F)c4nc(C)cn4c3)c3nn(CCOC)cc23)CC1	1000 to 10000 nM
CCn1cc2c(N3CCC(C)(NC4CC4)CC3)ccc(C(=O)Nc3cc(F)c4nc(C)cn4c3)c2n1	100 to 1000 nM
CCn1cc2c(N3CC[C@@H](N(C)C)C3)cc(Cl)c(C(=O)Nc3cc(F)c4nc(C)cn4c3)c2n1	> 10000 nM
CCn1cc2c(N3CCN[C@H](CO)C3)ccc(C(=O)Nc3cc(F)c4nc(C)cn4c3)c2n1	1000 to 10000 nM
CCn1cc2c(N3CCC(CC)(N(C)C)CC3)ccc(C(=O)Nc3cc(F)c4nc(C)cn4c3)c2n1	100 to 1000 nM
Cc1cn2cc(NC(=O)c3ccc(N4CCNCC4)c4cn(C)nc34)ccc2n1	1000 to 10000 nM

Now look at this entry.
Identify AC50 associated with the compound Cc1cn2cc(NC(=O)c3ccc(N4CCC(N)CC4)c4cn(C)nc34)cc(F)c2n1 100 to 1000 nM

---

Catalogue of pIC50 readings, one per entry.
system: Target C mRNA; assay: Splicing RT-qPCR gene panel, Target C canonical junction (CJ) mRNA; type: cell-based, human; conditions: Homo sapiens, Tables 4A/4B, read-out: Target C (IC50, decrease in CJ mRNA, gene panel)
pIC50: −log10 of the molar value. Structures can show the parent of a compound that is named as a salt.

Molecule	Experimental system	pIC50
COCCn1cc2c(N3CCNCC3)ccc(C(=O)Nc3cc(F)c4nc(C)cn4c3)c2n1 [Compound 292, hydrochloride]	Target C mRNA	5.00 to 6.00
Cc1cn2cc(NC(=O)c3ccc(N4CCC(N5CCCC5)C4)c4cc(C)oc34)cc(F)c2n1 (stereo not shown)	Target C mRNA	5.00 to 6.00
Cc1cc2c(N3CCNCC3)ccc(C(=O)Nc3cc(F)c4nc(C)oc4c3)c2o1	Target C mRNA	5.00 to 6.00

Identify pIC50 associated with the molecule Cc1cn2cc(NC(=O)c3ccc(N4CCNCC4)c4cn(C)nc34)[nH]c(=O)c2n1 < 5.00

Identify pIC50 associated with the molecule Cc1cn2cc(NC(=O)c3ccc(N4CCNCC4)c4cn(C)nc34)nc2c(C)n1 < 5.00

Identify pIC50 associated with the molecule Cc1cn2cc(NC(=O)c3ccc(N4CCNCC4)c4cn(CCO)nc34)cc(F)c2n1 [Compound 291, hydrochloride] 5.00 to 6.00

Identify pIC50 associated with the molecule CCn1cc2c(N3CC[C@@H](N(C)C)C3)cc(F)c(C(=O)Nc3cc(F)c4nc(C)cn4c3)c2n1 < 5.00

---

system: HTT mRNA; experiment: Splicing RT-qPCR assay, HTT canonical (CJ) and alternative (AJ) junction mRNA; assay type: cell-based, human; conditions: Homo sapiens, A673 or K562 cells, 24 hours compound treatment, read-out: HTT AJ (AC50, increase in alternative junction mRNA)
Quantity name: AC50

// worked examples, AC50 included
Compound	AC50
CCn1cc2c(N3CCC(NC4CC4)CC3)ccc(C(=O)Nc3cc(F)c4nc(C)cn4c3)c2n1	1 to 10 µM
Cn1cc2c(N3CCNCC3)ccc(C(=O)Nc3ccc4c(c3)oc(=O)n4C)c2n1	> 10 µM
CN[C@@H]1CCN(c2ccc(C(=O)Nc3cn4cc(C)nc4c(N(C)C)n3)c3nn(C)cc23)C1	> 10 µM
CNC1CCN(c2ccc(C(=O)Nc3cn4cc(C)nc4c(OC)n3)c3nn(C)cc23)C1 (centres unmarked)	> 10 µM
CN[C@H]1CCN(c2ccc(C(=O)Nc3cn4cc(C)nc4c(OC)n3)c3nn(CCOC)cc23)C1	> 10 µM

Identify AC50 associated with the compound C=Cn1cc2c(N3CCC(NCC)CC3)ccc(C(=O)Nc3cc(F)c4nc(C)cn4c3)c2n1 < 0.1 µM

Identify AC50 associated with the compound Cc1cn2cc(NC(=O)c3ccc(N4CCNCC4)c4cn(CC#N)nc34)cc(F)c2n1 1 to 10 µM

Identify AC50 associated with the compound CCn1cc2c(C3=CCNCC3)ccc(C(=O)Nc3cc(F)c4nc(C)cn4c3)c2n1 1 to 10 µM

---

Catalogue of AC50 readings, one per entry.
test system: MYB mRNA; test: Splicing RT-qPCR assay, MYB canonical (CJ) and alternative (AJ) junction mRNA; assay type: cell-based, human; conditions: Homo sapiens, 24 h, A673 or K562 cells, 24 hours compound treatment, RT-qPCR; read-out: MYB AJ (AC50, increase in alternative junction mRNA)

// worked examples, AC50 included
Compound	AC50
Cc1cn2cc(NC(=O)c3ccc(N4CCNCC4)c4cn(C5CCC5)nc34)cc(F)c2n1 [Compound 391]	100 to 1000 nM
CCn1cc2c(N3CC4(CCNCC4)C3)ccc(C(=O)Nc3cc(F)c4nc(C)cn4c3)c2n1 [Compound 492]	1000 to 10000 nM
CCn1cc2c(N3C[C@H](C)N[C@@H](C)C3)ccc(C(=O)Nc3cc(F)c4nc(C)cn4c3)c2n1 [Compound 592]	100 to 1000 nM
CCn1cc2c(N3CCN(C)CC3)cc(F)c(C(=O)Nc3cc(F)c4nc(C)cn4c3)c2n1 [Compound 481]	100 to 1000 nM
Cc1cn2cc(NC(=O)c3ccc(N4CCNCC4)c4cn(Cc5cnco5)nc34)cc(F)c2n1 [Compound 366]	< 100 nM
Cc1cn2cc(NC(=O)c3ccc(N4CCOCC4)c4cn(C)nc34)cc(F)c2n1 [Compound 486]	100 to 1000 nM
Cc1cn2cc(NC(=O)c3ccc(N4CCNCC4)c4cn(C)nc34)c(F)cc2n1 [Compound 333]	100 to 1000 nM
Cc1cn2cc(NC(=O)c3ccc(N4CC5(CN(C)C5)C4)c4cc(C)oc34)cc(F)c2n1 [Compound 206]	100 to 1000 nM

Identify AC50 associated with the compound CCn1cc2c(N3CCN[C@@H](CO)C3)ccc(C(=O)Nc3cc(F)c4nc(C)cn4c3)c2n1 [Compound 429] 100 to 1000 nM

Identify AC50 associated with the compound Cc1cn2cc(NC(=O)c3ccc(N4CCN(C)CC4)c4cc(C)oc34)cc(F)c2n1 [Compound 189] 100 to 1000 nM

Identify AC50 associated with the compound Cc1cn2cc(NC(=O)c3ccc(N4CCN[C@@H](C)C4)c4cn(C)nc34)cc(F)c2n1 (single isomer, unassigned) [Compound 352] < 100 nM

---

Catalogue of AC50 readings, one per entry.
tested on: HTT mRNA; experiment: Splicing RT-qPCR assay, HTT canonical (CJ) and alternative (AJ) junction mRNA; format: cell-based, human; conditions: Homo sapiens, A673 or K562 cells, 24 hours compound treatment, read-out: HTT AJ (AC50, increase in alternative junction mRNA)
Structures can show the parent of a compound that is named as a salt.

// worked examples, AC50 included
Compound	AC50
CCn1cc2c(N3CC[C@@H](NC)C3)cc(F)c(C(=O)Nc3cc(F)c4nc(C)cn4c3)c2n1	1000 to 10000 nM
Cc1cn2cc(NC(=O)c3ccc(N4CCNCC4)c4cn(CC5CCO5)nc34)cc(F)c2n1 (stereo not shown)	1000 to 10000 nM
Cc1cn2cc(NC(=O)c3ccc(N4CCN5CCCC5C4)c4cc(C)oc34)cc(F)c2n1 (stereo not shown)	100 to 1000 nM
CCn1cc2c(N3CCC(N[C@H]4C[C@@H](O)C4)CC3)ccc(C(=O)Nc3cc(F)c4nc(C)cn4c3)c2n1	1000 to 10000 nM
CCN(CC)C1CCN(c2ccc(C(=O)Nc3cc(F)c4nc(C)cn4c3)c3nn(CCOC)cc23)C1 (stereo not shown)	> 10000 nM

Identify AC50 associated with the compound CNC1CCN(c2ccc(C(=O)Nc3cc(F)c4nc(C)cn4c3)c3nn(C)cc23)C1 (stereo in doubt) [Compound 387] 1000 to 10000 nM

Identify AC50 associated with the compound CCn1cc2c(NC3CCNCC3)ccc(C(=O)Nc3cc(F)c4nc(C)cn4c3)c2n1 1000 to 10000 nM

Identify AC50 associated with the compound Cc1cn2cc(NC(=O)c3ccc(N4CCN(C)CC4)c4cc(C)oc34)cc(F)c2n1 1000 to 10000 nM

Identify AC50 associated with the compound CCC(=O)CN[C@@H]1CCN(c2ccc(C(=O)Nc3cc(F)c4nc(C)cn4c3)c3nn(C)cc23)C1 1000 to 10000 nM

Identify AC50 associated with the compound Cc1cn2cc(NC(=O)c3ccc(N4CCNCC4)c4cn(C5CC5)nc34)cc(F)c2n1 1000 to 10000 nM

Identify AC50 associated with the compound CNC1CCN(c2ccc(C(=O)Nc3cc(F)c4nc(C)cn4c3)c3nn(C)cc23)C1 (stereo not shown) [Compound 298, trifluoroacetic acid salt] 1000 to 10000 nM
